Data credit: patent US11254652B2

Assay: Solubility measurements by gravimetric method in solvents at 23° C. and 50° C.
Format: physicochemical
Settings: EtOH:MeOH (1:1), 50 °C, organic solvent or mixture, thermodynamic from solid, EtOH:MeOH (1:1), 50° C.; read-out: Solubility
measurement-kind: solubility at 2 days (mg/mL)
One number for each entry, in mg/mL.

Give a short answer stating reported solubility at 2 days for O=C(c1ccc(NS(=O)(=O)c2cccc3cccnc23)cc1)N1CCN(CC2CC2)CC1 [Form A, hemisulfate sesquihydrate] .
11

* * *

Experiment: Solubility measurements by gravimetric method in solvents at 23° C. and 50° C.
Format: physicochemical
Settings: EtOH, 50 °C, organic solvent or mixture, thermodynamic from solid, EtOH, 50° C.; read-out: Solubility
measurement-kind: solubility at 2 days (µg/mL)
Give bare numbers, in µg/mL.

State, in one line, measured solubility at 2 days of O=C(c1ccc(NS(=O)(=O)c2cccc3cccnc23)cc1)N1CCN(CC2CC2)CC1 [Form A, hemisulfate sesquihydrate]
1000

* * *

Assay: Solubility measurements by gravimetric method in solvents at 23° C. and 50° C.
Format: physicochemical
Conditions: MeOAc:MeOH (1:1) and 1 vol % water, 50 °C, organic solvent or mixture, thermodynamic from solid, MeOAc:MeOH (1:1) and 1 vol % water, 50° C.; read-out: Solubility
Method: Solubility measurements were done by gravimetric method in 20 different solvents at two temperatures (23° C. and 50° C.). About 20-30 mg of Form A, the synthesis of which is described below, was weighed and 0.75 mL solvent was added to form a slurry. […] From these three weights; vial, vial+liquid and vial+solid; the weight of dissolved solid and the solvent were calculated. Then using solvent density the solubility was calculated as mg solid/mL of solvent. […]
measurement-kind: solubility at 2 days (mg/mL)
Give bare numbers, in mg/mL.

Give the measured solubility at 2 days for O=C(c1ccc(NS(=O)(=O)c2cccc3cccnc23)cc1)N1CCN(CC2CC2)CC1 [Form A, hemisulfate sesquihydrate]
236

* * *

Assay: Solubility measurements by gravimetric method in solvents at 23° C. and 50° C.
Format: physicochemical
Conditions: MeOH, 23 °C, organic solvent or mixture, thermodynamic from solid, MeOH, 23° C., 2 days slurry; read-out: Solubility
measurement-kind: solubility at 2 days (mg/mL)
One number for each entry, in mg/mL.

Fill in solubility at 2 days for record O=C(c1ccc(NS(=O)(=O)c2cccc3cccnc23)cc1)N1CCN(CC2CC2)CC1 [Form A, hemisulfate sesquihydrate]
393

* * *

Experiment: Solubility measurements by gravimetric method in solvents at 23° C. and 50° C.
Assay type: physicochemical
Conditions: cyclohexane, 50 °C, organic solvent or mixture, thermodynamic from solid, Cyclohexane, 50° C.; read-out: Solubility
measurement-kind: solubility at 2 days

State its solubility at 2 days: O=C(c1ccc(NS(=O)(=O)c2cccc3cccnc23)cc1)N1CCN(CC2CC2)CC1 [Form A, hemisulfate sesquihydrate]
1000 µg/mL

* * *

Experiment: Solubility measurements by gravimetric method in solvents at 23° C. and 50° C.
Assay type: physicochemical
Conditions: THF, 23 °C, organic solvent or mixture, thermodynamic from solid, THF, 23° C.; read-out: Solubility
measurement-kind: solubility at 2 days (µg/mL)
Give bare numbers, in µg/mL.

Quickly give me recorded solubility at 2 days for O=C(c1ccc(NS(=O)(=O)c2cccc3cccnc23)cc1)N1CCN(CC2CC2)CC1 [Form A, hemisulfate sesquihydrate]
2000
